experiment: In vivo pharmacokinetics in the dog; design: species or system Beagle dogs; conditions: Beagle, plasma, 3 mg/kg PO
observed.property: AUC(0-t) (ng·h/mL)

>>> print(df.to_string())
                                   molecule  recorded_number
0  CS(=O)(=O)N1CCC(n2c(CN3C(=O)C4(CC4)c4ccc(F)cc43)nc3cc(Cl)ccc32)CC1 [Compound 33]             3870

* * *

molecular target: RSV fusion (pCDNA3.1_A2_F in HEK 293T cells) (Human respiratory syncytial virus A); assay: RSV fusion assay
Sequence (P03420 26-109): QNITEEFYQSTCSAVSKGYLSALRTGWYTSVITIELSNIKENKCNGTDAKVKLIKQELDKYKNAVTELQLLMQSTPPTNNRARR
Sequence (P03420 137-574): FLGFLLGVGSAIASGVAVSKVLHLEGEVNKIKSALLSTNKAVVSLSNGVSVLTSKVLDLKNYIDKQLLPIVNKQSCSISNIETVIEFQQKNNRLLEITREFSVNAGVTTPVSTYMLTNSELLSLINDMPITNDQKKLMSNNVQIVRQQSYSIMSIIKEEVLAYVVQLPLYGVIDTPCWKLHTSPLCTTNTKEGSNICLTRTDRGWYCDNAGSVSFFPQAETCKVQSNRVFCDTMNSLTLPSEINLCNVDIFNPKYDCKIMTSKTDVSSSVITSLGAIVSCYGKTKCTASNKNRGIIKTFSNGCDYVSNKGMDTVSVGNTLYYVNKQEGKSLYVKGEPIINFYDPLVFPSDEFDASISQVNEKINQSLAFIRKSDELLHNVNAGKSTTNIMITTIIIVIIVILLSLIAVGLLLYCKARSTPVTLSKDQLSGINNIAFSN
The compounds listed here are annotated with their IC50.
observed.property: IC50

In [3]: df
Out[3]:
                              smiles_string  observed_property  result
0  O=C1N(Cc2nc3cc(Cl)ccc3n2CCCN2CCOCC2)c2cc(F)ccc2C12CC2               IC50   70 nM
1  CS(=O)(=O)N1CCC(n2c(CN3C(=O)C4(CC4)c4ccc(F)cc43)nc3cc(Cl)ccc32)CC1               IC50  3.3 nM
2  CS(=O)(=O)N1CCN(CCCn2c(CN3C(=O)C4(CC4)c4ccc(F)cc43)nc3cc(Cl)ccc32)CC1               IC50   19 nM
3  CS(=O)(=O)C1CCN(CCCn2c(CN3C(=O)C4(CC4)c4ccc(F)cc43)nc3cc(Cl)ccc32)CC1               IC50   12 nM
4  CC(C)[C@H](NCCCn1c(CN2C(=O)C3(CC3)c3ccc(F)cc32)nc2cc(Cl)ccc21)C(N)=O               IC50   71 nM

* * *

test: In vivo pharmacokinetics in the dog; parameters: species or system Beagle dogs; details: Beagle, plasma, 3 mg/kg PO
observed.property: half-life

In [3]: df
Out[3]:
                              smiles_string  result
0  CS(=O)(=O)N1CCC(n2c(CN3C(=O)C4(CC4)c4ccc(F)cc43)nc3cc(Cl)ccc32)CC1  7.24 h

* * *

Test system: RSV A2 VR-1540
Assay: RSV plaque reduction assay
Assay type: cell-based
Conditions: human respiratory syncytial virus; Strain A2; n = 1; HEp-2 cells
Method: HEp-2 cells (ATCC, CCL23) were passaged in flasks and seeded in 96-well plates in DMEM containing antibiotics and supplemented with 10% FBS. During inoculation and subsequent incubation, cells were cultured in DMEM containing 3% FBS. […] Cells were washed twice with PBS before adding 50% v/v EtOH/MeOH, and then stored at −20° C. […] Following three wash steps with PBS/0.05% Tween20, 60 μL ready-to-use TrueBlue was added and plates were incubated at rt for 10-15 min before adding MilliQ water. […]
The compounds listed here are annotated with their IC90.
observed.property: IC90 (nM)

>>> print(df.to_string())
                                    compound  measurement_target  observed_property  recorded_number
 0  CS(=O)(=O)N1CCC(n2c(CN3C(=O)C4(CC4)c4ccc(F)cc43)nc3cc(Cl)ccc32)CC1 [Compound 33]      RSV A2 VR-1540               IC90              4.4
 1  CS(=O)(=O)N1CCN(CCn2c(CN3C(=O)C4(CC4)c4ccc(F)cc43)nc3cc(Cl)ccc32)CC1 [Compound 9]      RSV A2 VR-1540               IC90               28
 2  CCS(=O)(=O)CCNCCCn1c(CN2C(=O)C3(CC3)c3ccc(F)cc32)nc2cc(Cl)ccc21 [Compound 11]      RSV A2 VR-1540               IC90               41
 3  CC(C)[C@H](NCCCn1c(CN2C(=O)C3(CC3)c3ccc(F)cc32)nc2cc(Cl)ccc21)C(N)=O [Compound 12]      RSV A2 VR-1540               IC90              200
 4  CS(=O)(=O)CCNCCCn1c(CN2C(=O)C3(CC3)c3ccc(F)cc32)nc2cc(Cl)ccc21 [Compound 10]      RSV A2 VR-1540               IC90               31
 5  CS(=O)(=O)N1CCN(CCCn2c(CN3C(=O)C4(CC4)c4ccc(F)cc43)nc3cc(Cl)ccc32)CC1 [Compound 1]      RSV A2 VR-1540               IC90               50
 6  O=C1N(Cc2nc3cc(Cl)ccc3n2CCCN2CCOCC2)c2cc(F)ccc2C12CC2 [Compound 18]      RSV A2 VR-1540               IC90               60
 7  CS(=O)(=O)C1CCN(CCCn2c(CN3C(=O)C4(CC4)c4ccc(F)cc43)nc3cc(Cl)ccc32)CC1 [Compound 20]      RSV A2 VR-1540               IC90              7.5
 8  CCS(=O)(=O)N1CCC(n2c(CN3C(=O)C4(CC4)c4ccc(F)cc43)nc3cc(Cl)ccc32)CC1 [Compound 35]      RSV A2 VR-1540               IC90              5.2
 9  CS(=O)(=O)C1CN(CCCn2c(CN3C(=O)C4(CC4)c4ccc(F)cc43)nc3cc(Cl)ccc32)C1 [Compound 13]      RSV A2 VR-1540               IC90               41
10  O=C1N(Cc2nc3cc(Cl)ccc3n2CCCN2CCS(=O)(=O)CC2)c2cc(F)ccc2C12CC2 [Compound 28]      RSV A2 VR-1540               IC90               48
11  CS(=O)(=O)C1CCN(CCCn2c(CN3C(=O)C4(CC4)c4ccc(F)cc43)nc3cc(Cl)ccc32)C1 (stereo not drawn) [Compound 14]      RSV A2 VR-1540               IC90               34
